Target: T1, recombinant trimeric protein of human CD70 extracellular region (human CD70 mIgG Fc (knob) / mouse IgG Fc … (human, UniProt P01863 98-330 = IgG part))
T1 construct: The ELISA and Octet texts say only 'recombinant CD70 protein' / 'CM352 antigen'; also called recombinant human CD70 protein; recombinant CD70 protein
T1 chain 1: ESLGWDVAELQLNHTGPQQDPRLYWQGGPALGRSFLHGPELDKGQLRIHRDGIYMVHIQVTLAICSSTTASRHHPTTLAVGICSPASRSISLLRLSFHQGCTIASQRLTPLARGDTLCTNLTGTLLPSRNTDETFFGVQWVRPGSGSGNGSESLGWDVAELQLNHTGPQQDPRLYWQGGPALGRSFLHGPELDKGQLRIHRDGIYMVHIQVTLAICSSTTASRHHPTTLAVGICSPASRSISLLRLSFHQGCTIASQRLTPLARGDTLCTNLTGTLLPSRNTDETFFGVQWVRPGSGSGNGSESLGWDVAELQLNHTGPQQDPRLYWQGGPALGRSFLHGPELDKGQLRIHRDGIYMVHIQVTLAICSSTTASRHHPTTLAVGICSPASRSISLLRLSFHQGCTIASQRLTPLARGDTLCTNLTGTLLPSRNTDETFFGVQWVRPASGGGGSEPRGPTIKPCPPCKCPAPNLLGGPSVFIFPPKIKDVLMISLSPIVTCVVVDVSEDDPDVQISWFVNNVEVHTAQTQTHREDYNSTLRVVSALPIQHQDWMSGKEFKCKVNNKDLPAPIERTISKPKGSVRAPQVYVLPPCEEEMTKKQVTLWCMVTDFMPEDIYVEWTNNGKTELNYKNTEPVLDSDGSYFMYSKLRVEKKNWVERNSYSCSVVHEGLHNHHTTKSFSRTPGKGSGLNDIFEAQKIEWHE
T1 chain 2: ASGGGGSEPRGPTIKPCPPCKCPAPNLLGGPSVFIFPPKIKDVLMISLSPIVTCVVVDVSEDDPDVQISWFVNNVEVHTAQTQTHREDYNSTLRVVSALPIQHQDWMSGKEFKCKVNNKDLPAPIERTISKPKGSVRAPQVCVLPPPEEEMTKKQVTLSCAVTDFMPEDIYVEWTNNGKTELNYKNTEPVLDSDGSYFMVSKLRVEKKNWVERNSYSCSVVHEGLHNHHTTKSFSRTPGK
Experiment: competition ELISA, chimeric IgG titrated, CD27 coated, biotin-CD70, human pair
I'd be grateful if you could share measured pIC50 for these entries.
Worth noting: pIC50 values are minus log10 of concentrations stated in mol/L.

Query block: Identify the reported pIC50 for the following entry. 39H5 chimeric antibody (antibody, V domains shown) VH: EIQLVQSGPELKKPGETVKISCKASGYTFTNYGMNWVKQAPGQGLKWMGWINTYTGEPTYADDFTGRFAFSLETSASTAYLQINNLKNEDMAAYFCAREEDYRYVFNYWGQGTTLTVSS VL: DIQMIQSTSSLSASLGNRVTISCRASQDISNYLNWYQQKPDGTVKLLIYDTSRLHAGVPSRFSGSGSGTDYSLTISNLEQEDIATYFCQQGVTLPLTFGAGTKLEIK
Result block: 10.22

Query block: Provide measured pIC50 value, entry: 26G11 chimeric antibody (antibody, V domains shown) VH: QVQLQQSGPELVKPGASVKISCKTSGYTFADYTMHWVRQSQGKSLEWIGDIYPNDGGPNNNQKFKDKATLTVDKSSSTAYMELRSLTSEDSAVYYCARPFYYGNYAGFAFWGQGTLVTVSA VL: EMVLTQSPAIMSASPGEKVTMTCSASSSVSYMYWYQQKPGSSPRLLIYDTSNLASGVPVRFSGSGSGTSYSLTISRMEAEDAATYYCQQWSSYPLTFGAGTRLEIK
Result block: 9.77

Query block: Query pIC50 for 25H7 chimeric antibody (antibody, V domains shown) VH: EIQLVQSGPELKKPGETVKISCKASGYTFTNYGMNWVKQTPGKGLKWMGWINTDTGEPTYADDFKGRFAFSLETSASTAYLQINNLKNEDMATYFCAREEDYRYVFNYWGQGTTLTVSS VL: DIQMTQTTSSLSASLGDRVTISCRASQDISNYLNWYQQKPDGTVKLLIYYTSRLHSGVPSRFSGSGSGTDYSLTISNLEQEDIATYFCQQGVTLPLTFGAGTKLELK
Result block: 9.80

Ref: patent US20240247072A1
